Where do the numbers come from? From paper PMC4598832.

# targetSystem: Olfr73 (mOR-EG) wt (Mus musculus)
# Construct: Rho (rhodopsin) tag; Myc; Flag; expressed in transfected cells; host or cells: Hana 3A cells
# measurementDescription: cAMP reporter gene (SEAP) assay, Olfr73 wild type in Hana3A cells
# Type: cell-based
# condition: EC50 Olfr73 (WT), Supplementary Table 1, rounded values derived from Fig. 2 and Supplementary Fig. 4; unit inferred
measuredProperty: EC50

(Q) Hi! What's the reported EC50 for C=C(C)[C@@H]1CCC2=CC(=O)C[C@@H](C)[C@]2(C)C1 on Olfr73 (mOR-EG) wt (Mus musculus)?
(A) > 100 µM

* * *

Provide the recorded pEC50 for the entries that follow.
# targetSystem: Olfr73 E208A (Mus musculus, UniProt Q920P2, E208A)
# Construct: Rho (rhodopsin) tag; Myc; expressed in transfected cells; host or cells: Hana 3A cells
# Sequence (Q920P2 1-313 E208A): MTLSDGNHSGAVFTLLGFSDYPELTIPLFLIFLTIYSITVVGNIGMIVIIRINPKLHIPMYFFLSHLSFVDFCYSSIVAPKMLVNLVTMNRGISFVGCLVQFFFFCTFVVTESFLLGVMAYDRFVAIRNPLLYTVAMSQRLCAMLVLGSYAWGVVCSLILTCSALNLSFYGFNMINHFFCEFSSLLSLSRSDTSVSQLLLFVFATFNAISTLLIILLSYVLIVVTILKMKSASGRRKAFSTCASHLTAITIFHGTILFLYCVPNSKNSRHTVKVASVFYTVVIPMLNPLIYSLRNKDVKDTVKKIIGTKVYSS
# measurementDescription: cAMP reporter gene (SEAP) assay, Olfr73 E208A in Hana3A cells
# Assay type: cell-based
# condition: Hana3A cells, SEAP reporter; read-out: EC50 Olfr73 E208A
Numbers only, as −log10 of the molar value.

compound: CCOc1cc(C=O)ccc1O
measuredProperty: pEC50
valueObserved: 3.83

(Q) Hi! What's the reported pEC50 for COC(=O)c1ccc(O)c(OC)c1 [Methyl vanillate, methyl vanillate] on Olfr73 E208A (Mus musculus, UniProt Q920P2, E208A)?
(A) 3.46
